These entries and their values trace back to patent US20200255503A1.

# Test Target: T1, Fel d1 (B-A)-mmH (cat (Felis domesticus))
# T1 construct: Expressed in CHO cells; also called rFel d1.mmH; rFel d1-mmH
# T1 sequence (chain, as listed by the source limits assumed): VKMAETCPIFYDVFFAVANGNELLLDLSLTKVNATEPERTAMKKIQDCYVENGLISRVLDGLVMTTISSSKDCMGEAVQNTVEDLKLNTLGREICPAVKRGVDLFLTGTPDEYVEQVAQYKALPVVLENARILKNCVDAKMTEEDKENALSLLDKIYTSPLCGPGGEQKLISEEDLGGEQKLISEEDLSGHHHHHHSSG
# Measurement Notes: SPR, mAb captured, Fel d1 (B-A)-mmH injected, 25 C;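 further: rate constants obtained by fitting sensorgrams to a one-to-one binding model, Kd computed as koff over kon, half-life derived from koff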
Each item that follows carries a reported kon.
Quantity Name: kon

| Binder | Test Value |
| --- | --- |
| H2M1242N (antibody, mouse IgG2, V domains shown, chimeric, human variable domains with mouse IgG2 Fc (prefix H2M)) VH: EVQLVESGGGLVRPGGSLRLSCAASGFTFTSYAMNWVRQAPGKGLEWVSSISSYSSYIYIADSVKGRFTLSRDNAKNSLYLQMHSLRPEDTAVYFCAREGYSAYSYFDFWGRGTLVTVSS VL: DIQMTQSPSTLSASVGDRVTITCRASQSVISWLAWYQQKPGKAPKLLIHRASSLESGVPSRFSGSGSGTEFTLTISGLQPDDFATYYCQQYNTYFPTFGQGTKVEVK | 272000 M⁻¹ s⁻¹ |
| H1M1241N (antibody, V domains shown, chimeric, human variable domains with mouse Fc (prefix H1M)) VH: EVQLVESGGGLVKPGGSLRLSCAASGFTFSSYSMNWVRQAPGKGLEWVSSISSRSSYIYYADSVKGRFTISRDNAKNSLYLQMNSLRAEDTAVYYCARDHIVVVPGASYYYYGMDVWGQGTTVTVSS VL: DIQMTQSPSSLSASVGDRVTITCRASQGIRNDLGWYQQKPGKAPKRLISAASSLQSGVPSRFSGSGSGTEFTLTISSLQPEDFATYYCLQHNSYPLTFGGGTKVEIK | 337000 M⁻¹ s⁻¹ |
